Just for reference, patent US9382295B2 is where these values come from.

Assay: Rat pharmacokinetics, iv and po dosing, whole blood and plasma
Format: in vivo
Conditions: whole blood, iv 1 mg/kg, mean, read-out: systemic clearance (converted)
reportedProperty: clearance

| compound | experimentalResult |
| --- | --- |
| CC(C)CC1NC(=O)[C@H](CC(C)C)N(C)C(=O)CN(C)C(=O)C([C@@H](C)O)NC(=O)C([C@H](O)[C@H](C)CCN2CCOCC2)N(C)C(=O)C(C(C)C)N(C)C(=O)C(CC(C)C)NC(=O)C(CC(C)C)N(C)C(=O)C(C(C)C)OC(=O)C(C)NC(=O)C(CC(C)C)N(C)C1=O (stereo in doubt) | 19.3 mL/min/kg |
